# Tested on: Poly/Mono-ADP Ribose in U2OS cells
# ASSAY_SUMMARY: PAR in cell western assay (parylation) in U2OS cells
# Type: cell-based
# DETAILS: Homo sapiens; U2OS cells, 6 hrs, 2 mM H2O2; read-out: Parylation (U2OS)
# Procedure: U2OS cells are seeded at 2667 cells per well in 24 ul medium into poly-D lysine-coated 384 well plate and incubated in the TC incubator for O/N […] Next Day, cells are washed and incubated with anti-Rabbit 800CV (Licor antibody, 1:500) and CellTag 700 (Licor, 1:800) in 1×PBS/1% BSA/0.05% Tween for 1 h. After washing, plates are scanned using LICOR and are quantified. […]
# reported IC50; entries follow

Consider the reported IC50 for these molecules:
{"columns": ["MOLECULE", "IC50"],
 "data": [
  ["O=C(N[C@@H](C(=O)N1CCN(CC2CCN(CC(=O)N3CCN(C(=O)c4cc(Cc5n[nH]c(=O)c6ccccc56)ccc4F)CC3)CC2)CC1)C1CCCCC1)c1cc(C2CCCN(C(=O)CNCc3ccc(F)cc3F)C2)ccc1F (stereo partly shown) [Compound I-346]", "10 to 100 nM"],
  ["COC12CCC(CNCC(=O)N3CCCC(c4cccc(C(=O)N[C@@H](C(=O)N5CCC(CN6CCN(CC(=O)N7CCN(C(=O)c8cc(Cc9n[nH]c(=O)c%10ccccc9%10)ccc8F)CC7)CC6)CC5)C5CCCCC5)c4)C3)(CC1)OC2 (stereo partly shown) [Compound I-165]", "100 to 1000 nM"]
]}

Bench note: what IC50 did CCc1cccc(-c2cnc(C(=O)N3CCC(CN4CCN(CC(=O)N5CCN(C(=O)c6cc(Cc7n[nH]c(=O)c8ccccc78)ccc6F)CC5)CC4)CC3)c(NC(=O)CNCc3cccc(C)c3)c2)c1 [Compound I-61] show?
100 to 1000 nM

Bench note: what IC50 did O=C(N[C@@H](C(=O)N1CCN(CC2CCN(CC(=O)N3CCN(C(=O)c4cc(Cc5n[nH]c(=O)c6ccccc56)ccc4F)CC3)CC2)CC1)C1CCCCC1)c1cccc([C@@H]2CCCN(C(=O)CNC3CC3)C2)c1 [Compound I-365] show?
10 to 100 nM

Bench note: what IC50 did CCOc1cc(OC)ccc1CNCC(=O)N1CCCC(c2cccc(C(=O)N[C@@H](C(=O)NCCOCCOCCOCCOCCNCC(=O)N3CCN(C(=O)c4cc(Cc5n[nH]c(=O)c6ccccc56)ccc4F)CC3)C3CCCCC3)c2)C1 (stereo partly shown) [Compound I-31] show?
< 10 nM

Bench note: what IC50 did CCc1cccc(-c2cnc(C(=O)N3CCC(CN4CCN(CC(=O)N5CCN(C(=O)c6cc(Cc7n[nH]c(=O)c8ccccc78)ccc6F)CC5)CC4)CC3)c(OC(F)(F)F)c2)c1 [Compound I-420] show?
100 to 1000 nM

Bench note: what IC50 did O=C(CN1CCN(C[C@@H]2C[C@H]3CC[C@@H]2CN3C(=O)c2c(F)cc(-c3ccccc3)cc2F)CC1)N1CCN(C(=O)c2cc(Cc3n[nH]c(=O)c4ccccc34)ccc2F)CC1 [Compound I-774] show?
10 to 100 nM
